Values were extracted from patent US20240116985A1.

Listed here are compounds together with their documented pIC50.
tested.on: beta-catenin/TCF4 engagement (Homo sapiens, UniProt P35222)
Construct: expressed in transfected cells; host or cells: HEK293
assay.protocol: Nano-BRET target engagement assay (B-cat-Halo & TCF4-Luc in HEK293 cells)
Format: cell-based
conditions.used: absolute IC50; read-out: NanoBRET Abs IC50
Remember the convention: pIC50 equals -log10 of concentration in molar.

Sample CC[C@H](C)[C@@H]1NC(=O)[C@H](CC(=O)O)NC(=O)[C@]2(CC=CCCCC3(CCCC=CCCCCCC[C@@](C)(C(=O)N[C@@H](Cc4ccccc4OC)C(=O)N[C@@H](Cc4csc5ccccc45)C(=O)N[C@@H](Cc4c[nH]cn4)C(N)=O)NC(=O)[C@H](CC(N)=O)NC(=O)[C@H](Cc4ccccc4)NC(=O)[C@H](C)NC(=O)[C@H](C)NC(=O)[C@H](CCC(=O)O)NC(=O)[C@H](CC(=O)O)NC3=O)NC1=O)CCCN2C(C)=O (stereo partly drawn) ; pIC50 observed: 4.91

What the record says about CC(=O)N1CCC[C@]12CC=CCCCC1(CCCC=CCCCOC(=O)N3CC[C@@](C(=O)N[C@@H](Cc4ccsc4)C(=O)N[C@@H](Cc4ccc5ccccc5c4)C(=O)N[C@@H](C)C(N)=O)(C3)NC(=O)[C@H](C(C)C)NC(=O)[C@H](Cc3ccccc3)NC(=O)[C@H](C)NC(=O)[C@H](CCC(N)=O)NC(=O)[C@H](Cc3cccc(C(=O)O)c3)NC(=O)[C@H](CC(=O)O)NC1=O)NC(=O)[C@H](CC(C)(C)C)NC(=O)[C@H](CC(=O)O)NC2=O (stereo partly drawn) : pIC50 is 5.05

Recorded pIC50 (compound CCCC[C@@H]1NC(=O)[C@H](Cc2ccccc2)NC(=O)[C@H](C)NC(=O)C(C)(C)NC(=O)[C@H](Cc2cccc(C(=O)O)c2)NC(=O)[C@H](CC(=O)O)NC(=O)C2(CCCC=CCCCOC(=O)N3CC[C@@](C(=O)N[C@@H](Cc4ccsc4)C(=O)N[C@@H](Cc4csc5ccccc45)C(=O)N[C@@H](CCC(=O)N4CCC(C(F)(F)F)CC4)C(N)=O)(C3)NC1=O)CCCC=CC[C@]1(CCCN1C(C)=O)C(=O)N[C@@H](CC(=O)O)C(=O)N[C@@H](CC(C)(C)C)C(=O)N2 (stereo partly drawn) ): 4.71

compound CC(=O)N1CCC[C@]12CC=CCCCC1(CCCC=CCCCOC(=O)N3CC[C@@](C(=O)N[C@@H](Cc4ccsc4)C(=O)N[C@@H](Cc4csc5ccccc45)C(=O)N[C@@H](CCC(N)=O)C(N)=O)(C3)NC(=O)[C@H](CC(N)=O)NC(=O)[C@H](Cc3ccccc3)NC(=O)[C@H](C)NC(=O)[C@H](C)NC(=O)[C@H](CN(CC(=O)O)Cc3c(F)c(F)c(F)c(F)c3F)NC(=O)[C@H](CC(=O)O)NC1=O)NC(=O)[C@H](CC(C)(C)C)NC(=O)[C@H](CC(=O)O)NC2=O (stereo partly drawn) [I-1639] , pIC50 observed: 4.48

Others:
Entry CC(=O)N1CCC[C@]12CC=CCCCC1(CCCC=CCCCOC(=O)N3CC[C@@](C(=O)N[C@@H](Cc4ccsc4)C(=O)N[C@@H](Cc4csc5ccccc45)C(=O)N[C@@H](CCC(=O)N4CCN(CC(F)(F)F)CC4)C(N)=O)(C3)NC(=O)[C@H](CC(C)C)NC(=O)[C@H](Cc3ccccc3)NC(=O)[C@H](C)NC(=O)[C@H](C)NC(=O)[C@H](CN(CC(=O)O)CC(F)(F)F)NC(=O)[C@H](CC(=O)O)NC1=O)NC(=O)[C@H](CC(C)(C)C)NC(=O)[C@H](CC(=O)O)NC2=O (stereo partly drawn) — recorded pIC50 = 5.13

* * *

Property: Solubility; scope: individual compounds
assay.protocol: Solubility in PBS
Format: physicochemical
Method: After ultracentrifugation of the PBS solution, the supernatant was analyzed by HPLC and compared to an HPLC injection 50 μM peptide DMSO solution. Solubility was determined by: [(Area of PBS peak)/(Area of DMSO peak)]*50 uM.
Give just the numeric value; µM need not be written.

According to the records, this compound CC(=O)N1CCC[C@]12CC=CCCCC1(CCCC=CCCCOC(=O)N3CC[C@@](C(=O)N[C@@H](Cc4ccsc4)C(=O)N[C@@H](Cc4csc5ccccc45)C(=O)N[C@@H](CC(C)C)C(N)=O)(C3)NC(=O)[C@H](CC(N)=O)NC(=O)[C@H](Cc3ccccc3)NC(=O)[C@H](C)NC(=O)[C@H](C)NC(=O)[C@H](CN(CC(=O)O)CC(F)(F)F)NC(=O)[C@H](CC(=O)O)NC1=O)NC(=O)[C@H](CC(C)(C)C)NC(=O)[C@H](CC(=O)O)NC2=O (stereo partly drawn) [I-947] displays Solubility of 47

compound CC(=O)N1CCC[C@]12CC=CCCCC1(CCCC=CCCCCCC[C@@](C)(C(=O)N[C@@H](Cc3ccsc3)C(=O)N[C@@H](Cc3csc4ccccc34)C(=O)N[C@@H](CO)C(N)=O)NC(=O)[C@H](CC(C)C)NC(=O)[C@H](Cc3ccccc3)NC(=O)[C@H](C)NC(=O)[C@H](C)NC(=O)[C@H](CC(=O)O)NC(=O)[C@H](CC(=O)O)NC1=O)NC(=O)[C@H](CC(C)(C)C)NC(=O)[C@H](CC(=O)O)NC2=O (stereo partly drawn) , Solubility observed: 10

Turning to the following compound.
Lab book: Solubility of CC(=O)N1CCC[C@]12CC=CCCCC1(CCCC=CCCCCCC[C@@](C)(C(=O)N[C@@H](C)C(=O)N[C@@H](Cc3c[nH]c4ccccc34)C(=O)N[C@@H](CCC(N)=O)C(N)=O)NC(=O)[C@H](C(C)C)NC(=O)[C@H](Cc3ccccc3)NC(=O)[C@H](C)NC(=O)[C@H](C)NC(=O)[C@H](CC(=O)O)NC(=O)[C@H](CC(=O)O)NC1=O)NC(=O)[C@H](C)NC(=O)[C@H](CC(=O)O)NC2=O (stereo partly drawn) [I-356] noted as 50

* * *

tested.on: full-length B-Catenin (Uniprot ID P35222) (Homo sapiens, UniProt P35222)
Construct: 65 nM full-length B-Catenin (Uniprot ID P35222)
Sequence (P35222 whole entry): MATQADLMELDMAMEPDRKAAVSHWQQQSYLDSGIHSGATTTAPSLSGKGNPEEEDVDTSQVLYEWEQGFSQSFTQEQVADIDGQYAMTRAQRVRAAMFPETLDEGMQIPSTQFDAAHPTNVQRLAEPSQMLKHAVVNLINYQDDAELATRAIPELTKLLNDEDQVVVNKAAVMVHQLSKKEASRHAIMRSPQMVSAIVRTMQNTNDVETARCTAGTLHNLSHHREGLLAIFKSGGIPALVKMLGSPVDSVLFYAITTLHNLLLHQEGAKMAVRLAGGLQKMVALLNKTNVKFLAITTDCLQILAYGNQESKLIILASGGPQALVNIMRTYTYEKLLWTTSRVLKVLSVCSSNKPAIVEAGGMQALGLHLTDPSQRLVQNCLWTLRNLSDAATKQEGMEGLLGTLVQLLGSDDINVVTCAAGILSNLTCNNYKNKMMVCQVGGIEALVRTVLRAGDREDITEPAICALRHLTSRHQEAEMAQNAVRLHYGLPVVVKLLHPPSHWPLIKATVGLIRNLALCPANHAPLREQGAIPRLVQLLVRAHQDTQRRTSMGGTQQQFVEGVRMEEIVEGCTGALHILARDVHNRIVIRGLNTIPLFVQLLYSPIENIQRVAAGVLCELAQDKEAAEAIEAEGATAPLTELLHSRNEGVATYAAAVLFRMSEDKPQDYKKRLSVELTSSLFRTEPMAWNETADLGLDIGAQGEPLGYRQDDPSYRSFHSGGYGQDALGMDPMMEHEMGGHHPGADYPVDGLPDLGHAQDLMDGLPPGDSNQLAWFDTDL
assay.protocol: Alphascreen binding assay (beta-catenin / biotin-TCF4 10-53)
Reported EC50 values for the following molecules.
// units = µM; emit number, no label

Quick note, EC50 for CC(=O)N1CCC[C@]12CC=CCCCC1(CCCC=CCCCCCC[C@@](C)(C(=O)N[C@@H](Cc3ccccc3)C(=O)N[C@@](C)(Cc3c[nH]c4ccccc34)C(=O)N[C@@H](CCC(N)=O)C(N)=O)NC(=O)[C@H](C(C)C)NC(=O)[C@H](Cc3ccccc3)NC(=O)[C@H](C)NC(=O)[C@H](C)NC(=O)[C@H](CCC(=O)O)NC(=O)[C@H](CC(=O)O)NC1=O)NC(=O)[C@H](C)NC(=O)[C@H](CC(=O)O)NC2=O (some centres unmarked) landed at 3.3

Item: CC(=O)N1CCC[C@]12CC=CCCCC1(CCCC=CCCCCCC[C@@](C)(C(=O)N[C@@H](Cc3ccccc3)C(=O)N[C@@H](Cc3c[nH]c4ccccc34)C(=O)N[C@@H](CCC(N)=O)C(N)=O)NC(=O)[C@H](C(C)C)NC(=O)[C@H](Cc3ccccc3)NC(=O)[C@H](C)NC(=O)[C@H](C)NC(=O)[C@H](CCC(=O)O)NC(=O)[C@H](CCc3ccccc3)NC1=O)NC(=O)[C@H](C)NC(=O)[C@H](CC(=O)O)NC2=O (some centres unmarked) | EC50: 6.15

EC50 for CC[C@H](C)[C@@H]1NC(=O)[C@H](CC(=O)O)NC(=O)[C@]2(CC=CCCCC3(CCCC=CCCCCCC[C@@](C)(C(=O)N[C@@H](Cc4ccccc4)C(=O)N[C@@H](Cc4c[nH]c5ccccc45)C(=O)N[C@@H](Cc4c[nH]cn4)C(N)=O)NC(=O)[C@H](CCC(N)=O)NC(=O)[C@H](Cc4ccccc4)NC(=O)[C@H](C)NC(=O)[C@H](C)NC(=O)[C@H](CC(=O)O)NC(=O)[C@H](CC(=O)O)NC3=O)NC1=O)CCCN2C(C)=O (some centres unmarked) is 0.116

Measured EC50, CC(=O)N1CCC[C@]12CC=CCCCC1(CCCC=CCCCCCC[C@@](C)(C(=O)N[C@@H](Cc3ccccc3)C(=O)N[C@@H](Cc3c[nH]c4ccccc34)C(=O)N[C@@H](CCC(N)=O)C(N)=O)NC(=O)[C@H](C(C)C)NC(=O)[C@H](Cc3ccccc3)NC(=O)[C@H](C)NC(=O)[C@H](C)NC(=O)[C@H](CCC(=O)O)NC(=O)[C@H](CC(=O)O)NC1=O)NC(=O)[C@H](C)NC(=O)[C@H](Cc1c[nH]cn1)NC2=O (some centres unmarked) : 9.9

---
Entry CC(=O)N1CCC[C@]12CC=CCCCC1(CCCC=CCCCCCC[C@@](C)(C(=O)N[C@@H](CCc3ccccc3)C(=O)N[C@@H](Cc3c[nH]c4ccccc34)C(=O)N[C@@H](CCC(N)=O)C(N)=O)NC(=O)[C@H](C(C)C)NC(=O)[C@H](Cc3ccccc3)NC(=O)[C@H](C)NC(=O)[C@H](C)NC(=O)[C@H](CC(=O)O)NC(=O)[C@H](CC(=O)O)NC1=O)NC(=O)[C@H](C)NC(=O)[C@H](CC(=O)O)NC2=O (some centres unmarked) ; EC50 = 4
